- measurement protocol: Cytotoxicity assay (CellTiter-Glo)
- Assay type: cell-based, human
- assay conditions: human

molecule	CC50 / µM
NC(=O)c1cnc2[nH]ccc2c1N[C@@H]1[C@@H]2CC3C[C@H]1C[C@@](O)(C3)C2 [Peficitinib]	34.7

* * *

- Tested on: U937 cells
- measurement protocol: Cytotoxicity assay (CellTiter-Glo)
- Format: cell-based, human
- assay conditions: U937 cells; CellTiter-Glo; mean of three independent experiments
Structures can show the parent of a compound that is named as a salt.
Examples of compounds with documented CC50 follow.
measurement name: CC50 (µM)

compound	measurement name	modifier	test result
Cc1cc(Nc2nc(N[C@@H](C)c3ccc(F)cc3)c(C#N)cc2F)n[nH]1 [AZ 960]	CC50	=	6
CCS(=O)(=O)N1CCN(c2ccc(Nc3ncc(C(N)=O)c(NC4CC4)n3)cc2)CC1 [Cerdulatinib hydrochloride]	CC50	=	3.5
CCS(=O)(=O)N1CC(CC#N)(n2cc(-c3ncnc4[nH]ccc34)cn2)C1 [Baricitinib]	CC50	>	100

* * *

Examples of compounds with documented pIC50 follow.
- Tested on: IL-8
- measurement protocol: U937 cell-based anti-inflammatory assay for influenza virus infection, IL-8 production (AlphaLISA)
- Parameters: species or system human
- assay conditions: Homo sapiens, U-937, 72 h, read-out: IC50 IL-8
pIC50: −log10 of the molar value. Structures can show the parent of a compound that is named as a salt.

compound	modifier	pIC50
NC(=O)c1cnc2[nH]ccc2c1N[C@@H]1[C@@H]2CC3C[C@H]1C[C@@](O)(C3)C2 [Peficitinib]	=	8.00
Cc1cc(Nc2nc(N[C@@H](C)c3ncc(F)cn3)ncc2Cl)n[nH]1 [AZD1480]	=	5.96
N#CCNC(=O)c1ccc(-c2ccnc(Nc3ccc(N4CCOCC4)cc3)n2)cc1 [Momelotinib]	=	6.52
CCS(=O)(=O)N1CCN(c2ccc(Nc3ncc(C(N)=O)c(NC4CC4)n3)cc2)CC1 [Cerdulatinib hydrochloride]	>	8.30

* * *

- Test system: IP-10
- measurement protocol: cells
- Type: cell-based, human
- assay conditions: Homo sapiens, U-937, 72 h, read-out: IC50 IP-10
Counter-ions that a name gives are not always drawn.

compound	IC50 [nM]
CCS(=O)(=O)N1CCN(c2ccc(Nc3ncc(C(N)=O)c(NC4CC4)n3)cc2)CC1 [Cerdulatinib hydrochloride]	50
NC(=O)c1cnc2[nH]ccc2c1N[C@@H]1[C@@H]2CC3C[C@H]1C[C@@](O)(C3)C2	20
Cc1cc(Nc2cc(CN3CCOCC3)c3nc(C)c(Cc4ccc(Cl)cc4F)n3n2)n[nH]1	10
N#CC[C@H](C1CCCC1)n1cc(-c2ncnc3[nH]ccc23)cn1	70
Cc1cc(Nc2nc(N[C@@H](C)c3ncc(F)cn3)ncc2Cl)n[nH]1	1000
CC[C@@](C)(Nc1ccnc(-c2c[nH]c3ncccc23)n1)C(=O)NCC(F)(F)F	100
CNS(=O)(=O)C[C@H]1CC[C@H](N(C)c2ncnc3[nH]ccc23)CC1 [Oclacitinib maleate]	180
N#CCNC(=O)c1ccc(-c2ccnc(Nc3ccc(N4CCOCC4)cc3)n2)cc1	480

* * *

- System: U937 cells
- measurement protocol: Cytotoxicity assay (CellTiter-Glo)
- Type: cell-based, human
- assay conditions: U937 cells; CellTiter-Glo; mean of three independent experiments
Where a name gives a salt, the structure may show the parent alone.
measurement name: CC50 (µM)

molecule	measurement name	units	modifier	test result
CN1CCN(c2cccc(Nc3nc4c(-c5ccc(S(C)(=O)=O)cc5)cccn4n3)c2)CC1 [CEP-33779]	CC50	µM	=	10.5
CNS(=O)(=O)C[C@H]1CC[C@H](N(C)c2ncnc3[nH]ccc23)CC1 [Oclacitinib maleate]	CC50	µM	=	50
N#CCNC(=O)c1ccc(-c2ccnc(Nc3ccc(N4CCOCC4)cc3)n2)cc1 [Momelotinib]	CC50	µM	=	5.4
C[C@@H]1CCN(C(=O)CC#N)C[C@@H]1N(C)c1ncnc2[nH]ccc12 [Tofacitinib]	CC50	µM	>	100
Cc1cc(Nc2cc(CN3CCOCC3)c3nc(C)c(Cc4ccc(Cl)cc4F)n3n2)n[nH]1 [Gandotinib]	CC50	µM	=	26
O=C(Nc1ccc(-c2ccnc(Nc3ccc(N4CCOCC4)cc3)n2)cc1)C1CCCN1 (centres unmarked) [XL019]	CC50	µM	=	26.7
N#CC[C@H](C1CCCC1)n1cc(-c2ncnc3[nH]ccc23)cn1 [Ruxolitinib]	CC50	µM	=	100
CC[C@@](C)(Nc1ccnc(-c2c[nH]c3ncccc23)n1)C(=O)NCC(F)(F)F [Decernotinib]	CC50	µM	=	50
